Source of measurements: patent US8076352B2

Below is a list of entries, each paired with its recorded EC50 value.
Tested on: hypoxia-inducible endogenous VEGF expression in HeLa cells
Experiment: Hypoxia-inducible endogenous VEGF expression, VEGF ELISA of conditioned media (dose-response EC50)
Type: cell-based
Conditions: Homo sapiens, HeLa cells, hypoxic conditions (1% O2)

# COMPOUND, EC50
measured = [
    ("COc1ccc(C2c3[nH]c4ccc(Cl)cc4c3CCN2C(=O)c2ccc(-c3ccccc3)cc2)cc1 (stereo not shown)", "8 to 40 nM"),
    ("O=C(Oc1ccc(F)cc1)N1CCc2c([nH]c3ccc(Cl)cc23)C1c1ccc(OCCCCn2ccnc2)cc1 (stereo not shown)", "< 8 nM"),
    ("CCOC(=O)N1CCc2c([nH]c3ccc(Cl)cc23)C1c1coc2ccccc2c1=O (stereo not shown)", "40 to 200 nM"),
    ("COCCOC(=O)Nc1ccc(C2c3[nH]c4ccc(Cl)cc4c3CCN2C(=O)Oc2ccc(Cl)cc2)cc1 (stereo not shown)", "8 to 40 nM"),
    ("O=C(Oc1ccc(Cl)cc1)N1CCc2c([nH]c3ccc(Br)cc23)C1c1ccc(C(F)(F)F)cc1 (stereo not shown)", "< 8 nM"),
    ("O=C(Oc1ccc(Cl)cc1)N1CCc2c([nH]c3ccc(Cl)cc23)C1c1ccc(OCC(O)CO)cc1 (stereo not shown)", "< 8 nM"),
    ("CCOC(=O)N1CCc2c([nH]c3ccc(Cl)cc23)C1c1ccc(C(=O)N2CCN(CC)CC2)cc1 (stereo not shown)", "40 to 200 nM"),
]

----------
Tested on: hypoxia-inducible endogenous VEGF expression in HeLa cells
Experiment: Hypoxia-inducible endogenous VEGF expression, VEGF ELISA of conditioned media (dose-response EC50)
Format: cell-based
Conditions: Homo sapiens, HeLa cells, hypoxic conditions (1% O2)
pEC50: −log10 of the molar value.
QUANTITY NAME: pEC50

# COMPOUND, MEASURED ON, REPORTED MEASUREMENT
rows = [
    ("CCOC(=O)N1CCc2c([nH]c3ccc(Cl)cc23)C1CCc1ccccc1 (stereo not shown)", "hypoxia-inducible endogenous VEGF expression in HeLa cells", "6.70 to 7.40"),
    ("CNc1ncc(C2c3[nH]c4ccc(Cl)cc4c3CCN2C(=O)Oc2ccc(OC)cc2)cn1 (stereo not shown)", "hypoxia-inducible endogenous VEGF expression in HeLa cells", "6.00 to 6.70"),
    ("CCOC(=O)N1CCc2c([nH]c3ccc(Br)cc23)C1c1ccc(C(=O)NCCOC)cc1 (stereo not shown)", "hypoxia-inducible endogenous VEGF expression in HeLa cells", "> 8.10"),
    ("O=C(Oc1ccc(F)cc1)N1CCc2c([nH]c3ccc(Cl)cc23)C1c1ccc(OCCCCN2CCOCC2)cc1 (stereo not shown)", "hypoxia-inducible endogenous VEGF expression in HeLa cells", "> 8.10"),
]

----------
System: hypoxia-inducible endogenous VEGF expression in HeLa cells
Test: Hypoxia-inducible endogenous VEGF expression, VEGF ELISA of conditioned media (dose-response EC50)
Assay type: cell-based
Settings: Homo sapiens, HeLa cells, hypoxic conditions (1% O2)

# COMPOUND, EC50
records = [
    ("COCCOc1ccc(C2c3[nH]c4ccc(Cl)cc4c3CCN2C(=O)OCC(C)C)cc1 (stereo not drawn)", "< 8 nM"),
    ("O=C(Oc1ccccc1Cl)N1CCc2c([nH]c3ccc(Cl)cc23)C1c1ccc(C(F)(F)F)cc1 (stereo not drawn)", "40 to 200 nM"),
    ("C=CCOc1ccc(C2c3[nH]c4ccc(Cl)cc4c3CCN2C(=O)OCCF)cc1 (stereo not drawn)", "< 8 nM"),
    ("COCCCNCCCCOc1ccc(C2c3[nH]c4ccc(Cl)cc4c3CCN2C(=O)Oc2ccc(F)cc2)cc1 (stereo not drawn)", "8 to 40 nM"),
    ("O=C(Oc1ccc(Cl)cc1)N1CCc2c([nH]c3ccc(Cl)cc23)C1c1ccc(OCCCCN2CCCCC2)cc1 (stereo not drawn)", "8 to 40 nM"),
    ("O=C(Oc1ccc(Cl)cc1)N1CCc2c([nH]c3ccc(Cl)cc23)C1c1ccc(OCCCCCCN2CCOCC2)cc1 (stereo not drawn)", "< 8 nM"),
    ("CCOC(=O)N1CCc2c([nH]c3ccc(Cl)cc23)C1C1CC=CCC1 (stereo not drawn)", "40 to 200 nM"),
    ("CCOC(=O)N1CCc2c([nH]c3ccc(Cl)cc23)C1c1ccc(C(N)=O)cc1 (stereo not drawn)", "200 to 1000 nM"),
    ("O=C(Oc1ccc(F)cc1)N1CCc2c([nH]c3ccc(Cl)cc23)C1c1ccc(OCCCCCCn2cncn2)cc1 (stereo not drawn)", "< 8 nM"),
    ("CCOC(=O)N1CCc2c([nH]c3ccc(Cl)cc23)C1c1cccc(CN2CCN(CCOC)CC2)c1 (stereo not drawn)", "> 1000 nM"),
    ("O=C(Oc1ccc(F)cc1)Oc1ccc(C2c3[nH]c4ccc(Cl)cc4c3CCN2C(=O)Oc2ccc(F)cc2)cc1 (stereo not drawn)", "40 to 200 nM"),
    ("O=C(Oc1ccc(Cl)cc1)N1CCc2c([nH]c3ccc(Cl)cc23)C1c1ccc(OCCCCCl)cc1 (stereo not drawn)", "< 8 nM"),
    ("O=C1NC2CSC(CCCCC(=O)OCCOc3ccc(C4c5[nH]c6ccc(Cl)cc6c5CCN4C(=O)Oc4ccc(Cl)cc4)cc3)C2N1 (stereo not drawn)", "< 8 nM"),
    ("CSCCC1NCCc2c1[nH]c1ccc(Cl)cc21 (stereo not drawn)", "40 to 200 nM"),
    ("O=C(O)c1ccc(C2c3[nH]c4ccc(Cl)cc4c3CCN2C(=O)Oc2ccc(F)cc2)cc1 (stereo not drawn)", "> 1000 nM"),
]
